assayed system: Cholinesterase (Equus caballus)
Sequence (P81908 whole entry): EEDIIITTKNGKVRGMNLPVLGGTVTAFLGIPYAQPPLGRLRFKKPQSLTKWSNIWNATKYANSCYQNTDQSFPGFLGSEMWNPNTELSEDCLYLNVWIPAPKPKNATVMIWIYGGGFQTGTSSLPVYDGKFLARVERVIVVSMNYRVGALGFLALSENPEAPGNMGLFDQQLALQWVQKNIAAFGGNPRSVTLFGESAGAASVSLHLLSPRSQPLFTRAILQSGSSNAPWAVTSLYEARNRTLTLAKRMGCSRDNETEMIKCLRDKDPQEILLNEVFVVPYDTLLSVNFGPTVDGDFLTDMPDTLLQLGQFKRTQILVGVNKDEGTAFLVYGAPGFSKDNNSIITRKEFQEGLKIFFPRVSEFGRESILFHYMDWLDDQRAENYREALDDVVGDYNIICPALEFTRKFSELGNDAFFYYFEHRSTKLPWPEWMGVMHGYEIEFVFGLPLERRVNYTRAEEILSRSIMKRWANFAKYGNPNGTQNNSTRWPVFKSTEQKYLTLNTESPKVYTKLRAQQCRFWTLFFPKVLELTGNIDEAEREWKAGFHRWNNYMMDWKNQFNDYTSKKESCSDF
protocol: Competitive inhibition of equine serum butyrylcholinesterase in presence of varying butyrylthiocholine iodide substrate level preincubated for 20 mins followed by substrate addition measured every 1 min for 30 mins
metric name: Ki (µM)
Kindly provide the numeric value in µM only, without the unit symbol.

- chemical string: "N=C(NC(=N)N1CCN(C(=N)NC(=N)Nc2ccc(I)cc2)CC1)Nc1ccc(I)cc1"
  value unit: "µM"
  Ki: 0.31
- chemical string: "N=C(NC(=N)N1CCN(C(=N)NC(=N)Nc2ccc(OC(F)(F)F)cc2)CC1)Nc1ccc(OC(F)(F)F)cc1"
  value unit: "µM"
  Ki: 3.34
- chemical string: "N=C(NC(=N)N1CCN(C(=N)NC(=N)Nc2ccccc2)CC1)Nc1ccccc1"
  value unit: "µM"
  Ki: 0.95
- chemical string: "N=C(NC(=N)N1CCN(C(=N)NC(=N)Nc2cccc(Cl)c2)CC1)Nc1cccc(Cl)c1"
  value unit: "µM"
  Ki: 0.74

Turning now to a further record.
Query `N=C(NC(=N)N1CCN(C(=N)NC(=N)Nc2ccc(Br)cc2)CC1)Nc1ccc(Br)cc1` yields Ki of 0.61

====

assayed system: Acetylcholinesterase (Electrophorus electricus, UniProt O42275)
Sequence (O42275 whole entry): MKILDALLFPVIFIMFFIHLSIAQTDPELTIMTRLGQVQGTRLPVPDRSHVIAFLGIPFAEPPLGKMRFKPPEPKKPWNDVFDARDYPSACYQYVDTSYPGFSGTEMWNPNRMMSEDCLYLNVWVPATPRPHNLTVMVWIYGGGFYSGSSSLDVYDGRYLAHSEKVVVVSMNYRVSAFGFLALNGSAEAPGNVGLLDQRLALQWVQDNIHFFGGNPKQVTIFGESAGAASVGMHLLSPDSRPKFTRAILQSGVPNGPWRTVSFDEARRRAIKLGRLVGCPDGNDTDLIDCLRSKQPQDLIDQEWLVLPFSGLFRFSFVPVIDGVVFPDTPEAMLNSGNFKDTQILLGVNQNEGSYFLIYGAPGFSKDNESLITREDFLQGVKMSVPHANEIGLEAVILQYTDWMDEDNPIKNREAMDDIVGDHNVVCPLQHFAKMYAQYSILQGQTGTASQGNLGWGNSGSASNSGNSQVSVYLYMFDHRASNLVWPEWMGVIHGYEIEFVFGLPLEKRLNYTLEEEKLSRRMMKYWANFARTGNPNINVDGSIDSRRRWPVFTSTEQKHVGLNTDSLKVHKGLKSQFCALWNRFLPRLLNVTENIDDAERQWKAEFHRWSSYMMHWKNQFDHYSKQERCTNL
protocol: Non-competitive inhibition of Electrophorus electricus acetylcholinesterase in presence of varying acetylthiocholine iodide substrate level preincubated for 20 mins followed by substrate addition measured every 1 min for 30 mins
Reported Ki by item:
Kindly provide the numeric value in µM only, without the unit symbol.

- chemical string: "N=C(NC(=N)N1CCN(C(=N)NC(=N)Nc2ccccc2)CC1)Nc1ccccc1"
  Ki (µM): 69.2

Query `N=C(NC(=N)N1CCN(C(=N)NC(=N)Nc2ccc(Cl)cc2Cl)CC1)Nc1ccc(Cl)cc1Cl` yields Ki of 75.3

Query `CC(C)(C)c1ccc(NC(=N)NC(=N)N2CCN(C(=N)NC(=N)Nc3ccc(C(C)(C)C)cc3)CC2)cc1` yields Ki of 21.8

Query `N=C(NC(=N)N1CCN(C(=N)NC(=N)Nc2ccc([N+](=O)[O-])cc2)CC1)Nc1ccc([N+](=O)[O-])cc1` yields Ki of 2.96

Query `COc1ccc(NC(=N)NC(=N)N2CCN(C(=N)NC(=N)Nc3ccc(OC)cc3)CC2)cc1` yields Ki of 88.9

Query `N=C(NC(=N)N1CCN(C(=N)NC(=N)Nc2cccc(Br)c2)CC1)Nc1cccc(Br)c1` yields Ki of 25.4

Query `N=C(NC(=N)N1CCN(C(=N)NC(=N)Nc2ccccc2Cl)CC1)Nc1ccccc1Cl` yields Ki of 66.7

Query `N=C(NC(=N)N1CCN(C(=N)NC(=N)Nc2cccc(I)c2)CC1)Nc1cccc(I)c1` yields Ki of 19.9

Query `N=C(NC(=N)N1CCN(C(=N)NC(=N)Nc2ccc(F)cc2)CC1)Nc1ccc(F)cc1` yields Ki of 16.2

Query `N=C(NC(=N)N1CCN(C(=N)NC(=N)Nc2ccccc2Br)CC1)Nc1ccccc1Br` yields Ki of 40.5

Query `N=C(NC(=N)N1CCN(C(=N)NC(=N)Nc2ccccc2F)CC1)Nc1ccccc1F` yields Ki of 58.6

Query `N=C(NC(=N)N1CCN(C(=N)NC(=N)Nc2ccc(I)cc2)CC1)Nc1ccc(I)cc1` yields Ki of 49.1

Query `N=C(NC(=N)N1CCN(C(=N)NC(=N)Nc2cccc(F)c2)CC1)Nc1cccc(F)c1` yields Ki of 104

Query `N=C(NC(=N)N1CCN(C(=N)NC(=N)Nc2ccc(OC(F)(F)F)cc2)CC1)Nc1ccc(OC(F)(F)F)cc1` yields Ki of 62.2

Query `N=C(NC(=N)N1CCN(C(=N)NC(=N)Nc2ccc(Cl)cc2)CC1)Nc1ccc(Cl)cc1` yields Ki of 28.3
